All figures here come from PubChem BioAssay AID1963856.

Provide the recorded viability, T/C for the entries that follow.
Tested on: LG0567-F671-PDC KRAS tumor spheroid viability
Assay: Anticancer human tumor LG0567-F671-PDC patient-derived lung adenocarcinoma cell line growth inhibition [KRAS2]
Settings: second compound 0.316 µM; first compound 0.1 µM; stronger effect = lower value; spheroids with HUVEC and MSC
From the text: Multicellular complex tumor spheroid response to RAS pathway inhibitors in combination with a targeted agents in patient-derived cell lines with oncogenic KRAS variants from multiple cancer types A high-throughput screen of multi-cell type tumor spheroids was designed to identify active combinations of targeted small molecules and KRAS pathway inhibitors. […] Compounds. […] If the clinical Cmax for an agent had not been determined, the highest concentration tested was 10 microM. […]
One number for each entry, in %.

>  <Compound>
CC1OCC2(CCN(c3cnc(Sc4ccnc(N)c4Cl)c(N)n3)CC2)C1N (stereo not given) + COc1cc2nc(C)nc(NC(C)c3cc(N)cc(C(F)(F)F)c3)c2cc1OC1CCOC1

>  <Experimental target>
LG0567-F671-PDC KRAS tumor spheroid viability

>  <viability, T/C [%]>
41.6

$$$$
>  <Compound>
CCN1CCN(Cc2ccc(Nc3ncc(F)c(-c4cc(F)c5nc(C)n(C(C)C)c5c4)n3)nc2)CC1 + COc1cc2nc(C)nc(NC(C)c3cc(N)cc(C(F)(F)F)c3)c2cc1OC1CCOC1

>  <Experimental target>
LG0567-F671-PDC KRAS tumor spheroid viability

>  <viability, T/C [%]>
47.5

$$$$
>  <Compound>
CC1(C)CCC(CN2CCN(c3ccc(C(=O)NS(=O)(=O)c4ccc(NCC5CCOCC5)c([N+](=O)[O-])c4)c(Oc4cnc5[nH]ccc5c4)c3)CC2)=C(c2ccc(Cl)cc2)C1 + CNCc1ccccc1-c1csc(C(C)Nc2nc(C)nc3cc(OC)c(OC)cc23)c1

>  <Experimental target>
LG0567-F671-PDC KRAS tumor spheroid viability

>  <viability, T/C [%]>
63.9

$$$$
>  <Compound>
COC(=O)c1ccc2c(C(=Nc3ccc(N(C)C(=O)CN4CCN(C)CC4)cc3)c3ccccc3)c(O)[nH]c2c1 + CNCc1ccccc1-c1csc(C(C)Nc2nc(C)nc3cc(OC)c(OC)cc23)c1

>  <Experimental target>
LG0567-F671-PDC KRAS tumor spheroid viability

>  <viability, T/C [%]>
45.5

$$$$
>  <Compound>
CCN1CCN(Cc2ccc(Nc3ncc(F)c(-c4cc(F)c5nc(C)n(C(C)C)c5c4)n3)nc2)CC1 + CNCc1ccccc1-c1csc(C(C)Nc2nc(C)nc3cc(OC)c(OC)cc23)c1

>  <Experimental target>
LG0567-F671-PDC KRAS tumor spheroid viability

>  <viability, T/C [%]>
54.8

$$$$

I would be grateful if you could provide viability, T/C for each of the following entries.
1. CC1COCCN1c1cc(-c2ccnn2C)c2ccnc(-c3ccn[nH]3)c2n1 (stereo not given) + COc1cc2nc(C)nc(NC(C)c3cc(N)cc(C(F)(F)F)c3)c2cc1OC1CCOC1
2. Cn1ncnc1[C@H]1c2n[nH]c(=O)c3cc(F)cc(c23)N[C@@H]1c1ccc(F)cc1 + C=CC(=O)N1CCN(c2nc(OCC3CCCN3C)nc3c2CCN(c2cccc4cccc(C)c24)C3)CC1CC#N
3. CC1OCC2(CCN(c3cnc(Sc4ccnc(N)c4Cl)c(N)n3)CC2)C1N (stereo not given) + C=CC(=O)N1CCN(c2nc(=O)n(-c3c(C)ccnc3C(C)C)c3nc(-c4c(O)cccc4F)c(F)cc23)C(C)C1
4. CC(=O)OC12COC1CC(O)C1(C)C(=O)C(O)C3=C(C)C(OC(=O)C(O)C(NC(=O)OC(C)(C)C)c4ccccc4)CC(O)(C(OC(=O)c4ccccc4)C21)C3(C)C (stereo not given) + CC1OCC2(CCN(c3cnc(Sc4ccnc(N)c4Cl)c(N)n3)CC2)C1N
5. CC(=O)OC12COC1CC(O)C1(C)C(=O)C(O)C3=C(C)C(OC(=O)C(O)C(NC(=O)OC(C)(C)C)c4ccccc4)CC(O)(C(OC(=O)c4ccccc4)C21)C3(C)C (stereo not given) + CNCc1ccccc1-c1csc(C(C)Nc2nc(C)nc3cc(OC)c(OC)cc23)c1

1. 46.7
2. 30.8
3. 13.2
4. 24.9
5. 34.4

I would be grateful if you could provide viability, T/C for each of the following entries.
1. CC(=O)OC12COC1CC(O)C1(C)C(=O)C(O)C3=C(C)C(OC(=O)C(O)C(NC(=O)OC(C)(C)C)c4ccccc4)CC(O)(C(OC(=O)c4ccccc4)C21)C3(C)C (stereo not given) + C=CC(=O)N1CCN(c2nc(=O)n(-c3c(C)ccnc3C(C)C)c3nc(-c4c(O)cccc4F)c(F)cc23)C(C)C1
2. CC(C)NCC(C(=O)N1CCN(c2ncnc3c2C(C)CC3O)CC1)c1ccc(Cl)cc1 (stereo not given) + C=CC(=O)N1CCN(c2nc(OCC3CCCN3C)nc3c2CCN(c2cccc4cccc(C)c24)C3)CC1CC#N

1. 12.1
2. 29.3

I would be grateful if you could provide viability, T/C for each of the following entries.
1. CC(C)n1nc(-c2ccc3oc(N)nc3c2)c2c(N)ncnc21 + CC1OCC2(CCN(c3cnc(Sc4ccnc(N)c4Cl)c(N)n3)CC2)C1N
2. Cn1nccc1Nc1nccc(-c2cc3c(s2)C(C)(C)N(CCN2CCOCC2)C3=O)n1 + COc1cc2nc(C)nc(NC(C)c3cc(N)cc(C(F)(F)F)c3)c2cc1OC1CCOC1
3. COC(=O)c1ccc2c(C(=Nc3ccc(N(C)C(=O)CN4CCN(C)CC4)cc3)c3ccccc3)c(O)[nH]c2c1 + COc1cc2nc(C)nc(NC(C)c3cc(N)cc(C(F)(F)F)c3)c2cc1OC1CCOC1
4. COc1cc2nccc(Oc3ccc(NC(=O)C4(C(=O)Nc5ccc(F)cc5)CC4)cc3)c2cc1OC + CNCc1ccccc1-c1csc(C(C)Nc2nc(C)nc3cc(OC)c(OC)cc23)c1
5. COc1cc2nccc(Oc3ccc(NC(=O)C4(C(=O)Nc5ccc(F)cc5)CC4)cc3)c2cc1OC + C=CC(=O)N1CCN(c2nc(=O)n(-c3c(C)ccnc3C(C)C)c3nc(-c4c(O)cccc4F)c(F)cc23)C(C)C1

6.32
70.7
51.6
58.8
19.1

----------
tested on: LG0567-F671-PDC KRAS tumor spheroid viability; experiment: Anticancer human tumor LG0567-F671-PDC cell line growth inhibition [KRAS2]; details: second compound 0.1 µM; first compound 0.0316 µM; stronger effect = lower value; spheroids with HUVEC and MSC;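 further: drug exposure lasted seven days after spheroids formed for three days; 100% = DMSO vehicle control viability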
Provide the recorded viability, T/C for the entries that follow.
Numbers only, in %.

>  <Molecule>
CC1(C)CCC(CN2CCN(c3ccc(C(=O)NS(=O)(=O)c4ccc(NCC5CCOCC5)c([N+](=O)[O-])c4)c(Oc4cnc5[nH]ccc5c4)c3)CC2)=C(c2ccc(Cl)cc2)C1 + CC1OCC2(CCN(c3cnc(Sc4ccnc(N)c4Cl)c(N)n3)CC2)C1N

>  <viability, T/C, %>
47

$$$$
>  <Molecule>
CCN1CCN(Cc2ccc(Nc3ncc(F)c(-c4cc(F)c5nc(C)n(C(C)C)c5c4)n3)nc2)CC1 + C=CC(=O)N1CCN(c2nc(OCC3CCCN3C)nc3c2CCN(c2cccc4cccc(C)c24)C3)CC1CC#N

>  <viability, T/C, %>
18.6

$$$$
>  <Molecule>
COc1cc2nccc(Oc3ccc(NC(=O)C4(C(=O)Nc5ccc(F)cc5)CC4)cc3)c2cc1OC + CC1OCC2(CCN(c3cnc(Sc4ccnc(N)c4Cl)c(N)n3)CC2)C1N

>  <viability, T/C, %>
54

$$$$
>  <Molecule>
Cn1ncnc1[C@H]1c2n[nH]c(=O)c3cc(F)cc(c23)N[C@@H]1c1ccc(F)cc1 + COc1cc2nc(C)nc(NC(C)c3cc(N)cc(C(F)(F)F)c3)c2cc1OC1CCOC1

>  <viability, T/C, %>
84.7

$$$$

In plain terms, CN(C)C/C=C/C(=O)Nc1cc2c(Nc3ccc(F)c(Cl)c3)ncnc2cc1O[C@H]1CCOC1 + CNCc1ccccc1-c1csc(C(C)Nc2nc(C)nc3cc(OC)c(OC)cc23)c1 has a documented viability, T/C of 46.9

----------
test system: LG0567-F671-PDC KRAS tumor spheroid viability; assay: Anticancer human tumor LG0567-F671-PDC cell line growth inhibition [KRAS2]; conditions: second compound 3.16 µM; first compound 0.0316 µM; spheroids with HUVEC and MSC; active = viability on the fitted dose curve at most 10% of control; inactive = the rest;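 further: drug exposure lasted seven days after spheroids formed for three days; 100% = DMSO vehicle control viability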
Hi! Could you answer with just one of these? T = active, F = inactive

Which outcome was entered for the molecule COc1cc2nccc(Oc3ccc(NC(=O)C4(C(=O)Nc5ccc(F)cc5)CC4)cc3)c2cc1OC + C=CC(=O)N1CCN(c2nc(=O)n(-c3c(C)ccnc3C(C)C)c3nc(-c4c(O)cccc4F)c(F)cc23)C(C)C1 in this test?
F

Which outcome was entered for the molecule CC(=O)OC12COC1CC(O)C1(C)C(=O)C(O)C3=C(C)C(OC(=O)C(O)C(NC(=O)OC(C)(C)C)c4ccccc4)CC(O)(C(OC(=O)c4ccccc4)C21)C3(C)C (stereo unspecified) + COc1cc2nc(C)nc(NC(C)c3cc(N)cc(C(F)(F)F)c3)c2cc1OC1CCOC1 in this test?
F

Which outcome was entered for the molecule CC1COCCN1c1cc(-c2ccnn2C)c2ccnc(-c3ccn[nH]3)c2n1 (stereo unspecified) + C=CC(=O)N1CCN(c2nc(=O)n(-c3c(C)ccnc3C(C)C)c3nc(-c4c(O)cccc4F)c(F)cc23)C(C)C1 in this test?
F

Which outcome was entered for the molecule CC(C)n1nc(-c2ccc3oc(N)nc3c2)c2c(N)ncnc21 + C=CC(=O)N1CCN(c2nc(OCC3CCCN3C)nc3c2CCN(c2cccc4cccc(C)c24)C3)CC1CC#N in this test?
T

Which outcome was entered for the molecule Cn1nccc1Nc1nccc(-c2cc3c(s2)C(C)(C)N(CCN2CCOCC2)C3=O)n1 + C=CC(=O)N1CCN(c2nc(OCC3CCCN3C)nc3c2CCN(c2cccc4cccc(C)c24)C3)CC1CC#N in this test?
F
